Reference source: patent US9809574B2

# Test system: RS4; 11 leukaemia cell line
# assay name: In vitro cytotoxicity, Microculture Tetrazolium Assay (MTT)
# Type: cell-based
# measurement setup: Homo sapiens, 11 cells exposed for 48 hours
# Experimental: The cytotoxicity studies were carried out on the RS4; 11 leukaemia cell line and on H146 small Cell Lung Carcinoma cell line. The cells are distributed onto microplates and exposed to the test compounds for 48 hours. The cell viability is then quantified by a colorimetric assay, the Microculture Tetrazolium Assay (Cancer Res., 1987, 47, 939-942).
Counter-ions that a name gives are not always drawn.
Could you please report measured IC50 for the items listed next?
One number for each entry, in nM.

CN(C(=O)c1cc(-c2cc3c(cc2C(=O)N2Cc4ccccc4C[C@H]2CN2CCOCC2)CN(C(=O)Cc2ccccc2)CC3)n2c1CCCC2)c1ccc(O)cc1 [Example 70] = 9.8
CN(C(=O)c1cc(-c2cc3c(cc2C(=O)N2Cc4ccccc4C[C@H]2CN2CCOCC2)CN(C(=O)Cc2ccccc2)C3)n2c1CCCC2)c1ccc(O)cc1 [Example 8, hydrochloride salt] = 98
Cc1c(C(=O)N(C)c2ccccc2)cc(-c2cc3c(cc2C(=O)N2Cc4ccccc4C[C@H]2CN2CCOCC2)CN(C(=O)Oc2ccc4[nH]ccc4c2)CC3)n1C [Example 631] = 8.2

Then there is this compound:
For reference, reported IC50 for Cc1c(C(=O)N(C)c2ccc(O)cc2)cc(-c2cc3c(cc2C(=O)N2Cc4ccccc4C[C@H]2CN2CCOCC2)CN(C(=O)Oc2ccc4ccccc4c2)CC3)n1C [Example 574] stands at 11
